The values you see were collected from the kinase profiling compilation of Christmann-Franck et al. (2016).

tested on: EGFR (human), P00533 [G719C]; assay: KINOMEscan competition binding; conditions: compound 10.0 µM
MEASURED QUANTITY: kinase still bound, per cent of control (%)
All answers are understood in %, so give the number only.

Query: Requested field: kinase still bound, per cent of control. Item: Cc1ccc(NC(=O)c2cccc(C(C)(C)C#N)c2)cc1Nc1ccc2ncn(C)c(=O)c2c1
Response: 49

Query: Requested field: kinase still bound, per cent of control. Item: COc1cc(N2CCN(C)CC2)ccc1Nc1nc(N)c(C(=O)c2c(Cl)cccc2Cl)s1
Response: 91

Query: Requested field: kinase still bound, per cent of control. Item: COc1cc2ncnc(-n3nc(-c4ccccn4)nc3N)c2cc1OC
Response: 24

Query: Requested field: kinase still bound, per cent of control. Item: Cc1ccc(C(=O)Nc2cccc(C(F)(F)F)c2)cc1Nc1cncc(C(N)=O)c1
Response: 100

Query: Requested field: kinase still bound, per cent of control. Item: CN(C)C/C=C/C(=O)Nc1ccc(C(=O)Nc2cccc(Nc3nccc(-c4cccnc4)n3)c2)cc1
Response: 83

---

Kindly supply the reported kinase still bound, per cent of control values for the records listed here.
biological target: ADCK4 (human) (UniProt Q96D53); assay: KINOMEscan competition binding; conditions: compound 10.0 µM
Sequence (Q96D53 whole entry, looked up): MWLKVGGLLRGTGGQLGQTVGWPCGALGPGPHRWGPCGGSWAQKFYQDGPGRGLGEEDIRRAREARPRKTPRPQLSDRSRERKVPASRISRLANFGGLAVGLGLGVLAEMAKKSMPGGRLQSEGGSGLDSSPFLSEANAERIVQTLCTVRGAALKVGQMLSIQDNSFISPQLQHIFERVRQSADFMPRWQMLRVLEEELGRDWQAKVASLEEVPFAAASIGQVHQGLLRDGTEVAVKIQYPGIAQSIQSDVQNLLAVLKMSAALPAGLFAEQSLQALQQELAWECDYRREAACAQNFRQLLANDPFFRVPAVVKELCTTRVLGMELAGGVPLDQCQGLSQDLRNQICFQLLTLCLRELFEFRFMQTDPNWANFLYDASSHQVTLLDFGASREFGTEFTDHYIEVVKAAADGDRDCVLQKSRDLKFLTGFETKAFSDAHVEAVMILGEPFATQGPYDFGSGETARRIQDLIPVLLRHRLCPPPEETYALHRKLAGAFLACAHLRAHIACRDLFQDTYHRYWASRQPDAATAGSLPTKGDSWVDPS
All answers are understood in %, so give the number only.

Query: Entry COc1cc(C)c(Sc2cnc(NC(=O)c3ccc(CNC(C)C(C)C)cc3)s2)cc1C(=O)N1CCN(C(C)=O)CC1 (centres undefined) , system ADCK4 (human) (UniProt Q96D53): what kinase still bound, per cent of control was measured?
Response: 100

Query: Entry COc1ccc(N(C(=O)Oc2cc(C(=O)Nc3cccc(C(F)(F)F)c3)ccc2C)c2ccnc(Nc3ccc(N4CCN(C)CC4)cc3)n2)c(OC)c1 , system ADCK4 (human) (UniProt Q96D53): what kinase still bound, per cent of control was measured?
Response: 100

Query: Entry CCN1CCN(Cc2ccc(NC(=O)c3ccc(C)c(/C=C/c4cnc5[nH]ccc5c4OC)c3)cc2C(F)(F)F)CC1 , system ADCK4 (human) (UniProt Q96D53): what kinase still bound, per cent of control was measured?
Response: 100

Query: Entry COc1cc2c(Nc3ccc(NC(=O)c4ccccc4)cc3)ncnc2cc1OCCCN1CCOCC1 , system ADCK4 (human) (UniProt Q96D53): what kinase still bound, per cent of control was measured?
Response: 66

Query: Entry N#Cc1cc(-c2ccnc(Nc3ccc(-n4cnc(-c5cccnc5)n4)cc3)n2)cc(N2CCOCC2)c1 , system ADCK4 (human) (UniProt Q96D53): what kinase still bound, per cent of control was measured?
Response: 0.25

Query: Entry CCOc1cc(N2CCC(O)CC2)ccc1Nc1ncc2c(n1)N(C)c1ccccc1C(=O)N2C , system ADCK4 (human) (UniProt Q96D53): what kinase still bound, per cent of control was measured?
Response: 100

Query: Entry CCc1nc(-c2cccc(C)c2)c(-c2ccnc(NC(=O)c3ccccc3)c2)s1 , system ADCK4 (human) (UniProt Q96D53): what kinase still bound, per cent of control was measured?
Response: 2.2

Query: Entry C=CC(=O)Nc1ccc(C(=O)c2sc(Nc3ccc(N4CCN(C)CC4)cc3OC)nc2N)cc1 , system ADCK4 (human) (UniProt Q96D53): what kinase still bound, per cent of control was measured?
Response: 45

Query: Entry CCCS(=O)(=O)Nc1ccc(F)c(C(=O)c2c[nH]c3ncc(Cl)cc23)c1F , system ADCK4 (human) (UniProt Q96D53): what kinase still bound, per cent of control was measured?
Response: 100
